Hello, the source for this data is the supplement of paper PMC10126150, in case you need it.

Test system: ATP;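 also: ATP exposure 15 min at 22 °C before imaging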
Experiment: switch fluorescence ratio, 500 uM ATP over buffer (Cy3 cluster intensity, sum of 5 cycles each) (fold (ratio)); higher = stronger signal-on switching upon ATP binding; sequences stand for … in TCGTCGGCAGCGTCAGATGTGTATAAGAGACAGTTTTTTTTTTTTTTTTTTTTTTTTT…TC
Conditions: aptamer strand: ATP DNA aptamer (quencher-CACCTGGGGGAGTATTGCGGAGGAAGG + anchor), 100 nM annealed; ATP concentration: 500 uM
attribute-measured: switch fluorescence ratio
# output: bare number, no unit

The reported switch fluorescence ratio of the sequence CGCGAACATG was 0.984

The reported switch fluorescence ratio of the sequence ATGGTTAGAT was 1.01

The reported switch fluorescence ratio of the sequence ACTGGGGTCA was 1

The reported switch fluorescence ratio of the sequence ATAGTGGGAG was 0.992

The reported switch fluorescence ratio of the sequence CATTTGAGCC was 0.973

The reported switch fluorescence ratio of the sequence CACTCTTGAT was 1.01

The reported switch fluorescence ratio of the sequence AGGAGTTGAA was 0.978

The reported switch fluorescence ratio of the sequence GGCGCCTTTT was 0.988

The reported switch fluorescence ratio of the sequence GAGGCTGTTT was 1.01

The reported switch fluorescence ratio of the sequence GGGGCTTTTG was 0.98

The reported switch fluorescence ratio of the sequence AGCGAAATCA was 1

The reported switch fluorescence ratio of the sequence AGGTTTTATA was 0.992

The reported switch fluorescence ratio of the sequence TGTGCGGGGT was 0.974

The reported switch fluorescence ratio of the sequence CGTAGGGGTT was 0.989

The reported switch fluorescence ratio of the sequence ATTGTTCTGA was 1.01

The reported switch fluorescence ratio of the sequence TTAGGTTAGG was 0.976

The reported switch fluorescence ratio of the sequence AGGGTGGAAG was 0.993

The reported switch fluorescence ratio of the sequence GTTTTCTATA was 0.975

The reported switch fluorescence ratio of the sequence TAAGTATTGT was 1.01

The reported switch fluorescence ratio of the sequence GTGTTAGCTG was 1.02

The reported switch fluorescence ratio of the sequence AGGGACTGGT was 1.01

The reported switch fluorescence ratio of the sequence AGTATATGGG was 0.988

The reported switch fluorescence ratio of the sequence GGGGAAGTTT was 0.998

The reported switch fluorescence ratio of the sequence TGGGATGTG was 0.991

The reported switch fluorescence ratio of the sequence TGAGAATTTA was 0.994

The reported switch fluorescence ratio of the sequence AAGGGGTTCA was 0.991

The reported switch fluorescence ratio of the sequence TTTTGAAAGA was 1.01

The reported switch fluorescence ratio of the sequence AAGGGCTGTG was 0.984

The reported switch fluorescence ratio of the sequence GGGGGGGCGT was 0.996

The reported switch fluorescence ratio of the sequence CTCAGTATCT was 0.972

The reported switch fluorescence ratio of the sequence GTAAATAGGC was 0.993

The reported switch fluorescence ratio of the sequence CAGTTCATTA was 0.998

The reported switch fluorescence ratio of the sequence AATGTCAGCG was 0.999

The reported switch fluorescence ratio of the sequence GCGATTAAGG was 0.99

The reported switch fluorescence ratio of the sequence GGCCCAGCGC was 0.976

The reported switch fluorescence ratio of the sequence ATGAGGGG was 1.01

The reported switch fluorescence ratio of the sequence GGTGAAGCCT was 0.991

The reported switch fluorescence ratio of the sequence GGCTCTTAGG was 0.975

The reported switch fluorescence ratio of the sequence AGTATTTTGG was 1.01

The reported switch fluorescence ratio of the sequence AGGTTTGGGC was 0.997

The reported switch fluorescence ratio of the sequence CGATGGGTCG was 1

The reported switch fluorescence ratio of the sequence GATTGGAAAG was 1.01

The reported switch fluorescence ratio of the sequence GTGTGGTATA was 0.982

The reported switch fluorescence ratio of the sequence CTGATTATCT was 0.989

The reported switch fluorescence ratio of the sequence TGGCTTTTTG was 0.99

The reported switch fluorescence ratio of the sequence TGTATTTTGT was 0.976

The reported switch fluorescence ratio of the sequence AGACAGGGCC was 0.988

The reported switch fluorescence ratio of the sequence TTTGTTCCTT was 1.01

The reported switch fluorescence ratio of the sequence CAACGGGTTC was 1.03

The reported switch fluorescence ratio of the sequence AGGGTTATGC was 0.984

The reported switch fluorescence ratio of the sequence TCAGACTCAG was 0.992

The reported switch fluorescence ratio of the sequence GATGCATGGC was 1.12

The reported switch fluorescence ratio of the sequence GGGGGTTTCG was 0.999

The reported switch fluorescence ratio of the sequence ATGAGCTGAG was 1.01

The reported switch fluorescence ratio of the sequence CAGGGGGCGA was 1.06

The reported switch fluorescence ratio of the sequence AGTGAGGCGC was 1.01

The reported switch fluorescence ratio of the sequence GTTTGGGGTT was 0.979

The reported switch fluorescence ratio of the sequence GGGTACGCCG was 0.934

The reported switch fluorescence ratio of the sequence GGGGGGATCT was 1

The reported switch fluorescence ratio of the sequence AGGGAGAGCG was 0.991

The reported switch fluorescence ratio of the sequence AGAGTCGCGG was 1
